- assay-text: Antioxidant activity in rat liver microsome membrane assessed as inhibition of lipid peroxidation after 45 mins by TBARS-based spectrophotometric assay
- Type: functional, microsomes
test-readout: pIC50
pIC50 (log units): -log10 of the concentration in mol/L.

What does the record list as pIC50 for CN1CCOC(O)(c2ccc3c(c2)Nc2ccccc2S3)C1 (racemic) ? 6.33

What does the record list as pIC50 for O=c1c(O)c(-c2ccc(O)c(O)c2)oc2cc(O)cc(O)c12 [QUERCETIN] ? 4.70

What does the record list as pIC50 for CN1CC(O)(c2ccc(-c3ccccc3)cc2)Sc2ccccc21 (configuration not stated) ? 4.08

What does the record list as pIC50 for CC(=O)N1c2ccccc2Sc2ccc(C3(O)CN4CCCCC4CO3)cc21 (racemic) ? 4.92

What does the record list as pIC50 for CC1=CSC(O)(c2ccc3c(c2)Nc2ccccc2S3)CN1C=O (configuration not stated) ? 6.48

What does the record list as pIC50 for CC(=O)N1c2ccccc2Sc2ccc(C3(O)CN(C)C4CCCCC4O3)cc21 (racemic) ? 4.85

What does the record list as pIC50 for CC(=O)N1c2ccccc2Sc2ccc(C3(O)CN(C)CCO3)cc21 (racemic) ? 4.44

----------
test-readout: IC50 (µM)
Please give a number only; it is taken to be in µM.

Given the entry CC(=O)N1c2ccccc2Sc2ccc(C3(O)CN(C)C4CCCCC4O3)cc21 (racemic) , what IC50 was observed with Squalene synthase (Rattus norvegicus)? 1.6

Given the entry CN1CC(O)(c2ccc3c(c2)Nc2ccccc2S3)OC2CCCCC21 (racemic) , what IC50 was observed with Squalene synthase (Rattus norvegicus)? 11.9

Given the entry CC(=O)N1c2ccccc2Sc2ccc(C3(O)CN(C)CCO3)cc21 (racemic) , what IC50 was observed with Squalene synthase (Rattus norvegicus)? 25.3

Given the entry CN1CCOC(O)(c2ccc3c(c2)N(C)c2ccccc2S3)C1 (racemic) , what IC50 was observed with Squalene synthase (Rattus norvegicus)? 3.6

Given the entry CN1c2ccccc2Sc2ccc(C3(O)CN4CCCCC4CO3)cc21 (racemic) , what IC50 was observed with Squalene synthase (Rattus norvegicus)? 2.3

----------
- tested-on: Prostaglandin G/H synthase 1 (Bos taurus)
- assay-text: Inhibition of bovine COX-1 assessed as PGF2-alpha formation using arachidonic acid as substrate at 20 uM by enzyme immunoassay
Assign Y to entries whose inhibition meets or exceeds 60%; assign N to the rest.

Decide: inhibition of CN1CC(O)(c2ccc(-c3ccccc3)cc2)Sc2ccccc21 (centres undefined) >= 60%? Y

Decide: inhibition of CN1CC(O)(c2ccc(-c3ccccc3)cc2)Oc2ccccc21 (centres undefined) >= 60%? N

Decide: inhibition of CN1CCOC(O)(c2ccc3c(c2)Nc2ccccc2S3)C1 (racemic) >= 60%? Y

Decide: inhibition of CN1CC(O)(c2ccc3c(c2)Nc2ccccc2S3)Sc2ccccc21 (centres undefined) >= 60%? Y

Decide: inhibition of CN1CCOC(O)(c2ccc3c(c2)N(C)c2ccccc2S3)C1 (racemic) >= 60%? N

Decide: inhibition of COc1ccc2c(c1)c(CC(=O)O)c(C)n2C(=O)c1ccc(Cl)cc1 [INDOMETHACIN] >= 60%? Y

Decide: inhibition of COc1ccc2cc([C@H](C)C(=O)O)ccc2c1 [NAPROXEN] >= 60%? N

Decide: inhibition of CN1CC(O)(c2ccc3c(c2)Nc2ccccc2S3)OC2CCCCC21 (racemic) >= 60%? N

Decide: inhibition of OC1(c2ccc3c(c2)Nc2ccccc2S3)CN2CCCCC2CO1 (racemic) >= 60%? N

meta.source: ChEMBL document CHEMBL3232866
